Property label: pIC50
Friendly reminder that pIC50 comes from taking -log10 of the concentration in mol/L.

So what pIC50 did `CCOC(=O)/C(C#N)=C/NCCc1c[nH]c2ccccc12` get with PfDHODH (Plasmodium falciparum)? 4.70

So what pIC50 did `CCOC(=O)C(=CNc1ccc2c(c1)OCO2)C(=O)OCC` get with PfDHODH (Plasmodium falciparum)? 5.29

So what pIC50 did `CCOC(=O)C(=CNc1cccc(N(C)C)c1)C(=O)OCC` get with PfDHODH (Plasmodium falciparum)? 6.42

###

pIC50: −log10 of the molar value.
Property label: pIC50

So what pIC50 did `CCOC(=O)C(=CNc1cccc(N(C)C)c1)C(=O)OCC` get with hDHODH (Homo sapiens)? < 4.00

Just for reference, paper PMC4871132 is where these values come from.
